Give measured EC50 for each item. Keep answers brief.
EXPERIMENTAL_TARGET: human M1 (Homo sapiens)
Construct: expressed in transfected cells; host or cells: CHO cells
Sequence (P11229 whole entry): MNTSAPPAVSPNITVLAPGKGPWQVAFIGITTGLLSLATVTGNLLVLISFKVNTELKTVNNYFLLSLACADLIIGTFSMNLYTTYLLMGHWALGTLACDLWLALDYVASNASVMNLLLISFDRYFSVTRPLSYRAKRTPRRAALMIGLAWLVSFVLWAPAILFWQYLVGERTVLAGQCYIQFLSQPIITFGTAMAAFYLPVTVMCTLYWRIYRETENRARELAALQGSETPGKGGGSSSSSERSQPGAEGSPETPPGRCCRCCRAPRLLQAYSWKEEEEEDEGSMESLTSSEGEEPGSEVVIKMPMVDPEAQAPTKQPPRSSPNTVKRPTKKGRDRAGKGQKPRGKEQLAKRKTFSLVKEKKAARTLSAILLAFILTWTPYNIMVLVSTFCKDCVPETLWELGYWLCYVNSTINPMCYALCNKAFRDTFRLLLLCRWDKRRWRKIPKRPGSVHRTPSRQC
PROCEDURE_DETAILS: M1 PAM assay (FLIPR intracellular calcium), human M1
Type: cell-based
SETTINGS: CHO human M1 cells, FLIPR Ca2+, with EC20 of acetylcholine; first value of the cell; read-out: hM1 EC50
Lab book: enter the figure in nM, no units written.

### Prompt Give its EC50 value. Item: O=C(N[C@H]1CCCC[C@@H]1O)c1cn(Cc2ccc(N3CCCC3)nc2)c2cccc(F)c12 [Example 162]
### Response 214

### Prompt Need EC50 of O=C(N[C@H]1CCCC[C@@H]1O)c1cn(Cc2ccc(-c3cnco3)cc2)c2cccc(F)c12 [Example 137] , thanks.
### Response 9

### Prompt For Cn1cc(-c2ccc(Cn3nc(C(=O)N[C@H]4CCOC[C@@H]4O)c4c(F)ccc(F)c43)cn2)cn1 [Example 74] , what is its reported EC50?
### Response 54.8

### Prompt Quick one: EC50 of CNC(=O)c1ccc(Cn2cc(C(=O)N[C@H]3CCCC[C@@H]3O)c3c(F)cccc32)c(F)c1 [Example 86] ?
### Response 6.91
